tgt: cyno LAIR-1-CD3ζ chimeric receptor on NFAT-GFP reporter cells (cynomolgus monkey; human)
Sequence (P20963 other isoform, or with tags, fused parts or gaps mutant limits assumed): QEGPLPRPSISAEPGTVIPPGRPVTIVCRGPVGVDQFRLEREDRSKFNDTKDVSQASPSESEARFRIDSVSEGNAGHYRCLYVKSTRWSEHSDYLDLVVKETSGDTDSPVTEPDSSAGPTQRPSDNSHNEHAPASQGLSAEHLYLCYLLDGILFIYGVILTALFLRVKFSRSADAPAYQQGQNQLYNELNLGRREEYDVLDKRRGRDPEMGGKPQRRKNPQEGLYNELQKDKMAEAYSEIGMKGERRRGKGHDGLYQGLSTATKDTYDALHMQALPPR
method-summary: cell-based or functional assay
quantity-measured: IC50 (read off the curve): % GFP+ cyno LAIR-1 reporter cells on coated collagen 1

# binder, observed-value
rows = [
    ("humanized anti-LAIR-1 antibody Hz62G10.v1 (antibody, human IgG1, kappa, N297G, V domains shown, Humanized 62G10) VH: EVQLVESGGGLVKPGGSLRLSCAASGFTFNINAMNWVRQAPGKGLEWVARIRTKNNNFATYYADSVKDRFTISRDDSKNTLYLQMNSLKTEDTAVYYCVRGPYFDYWGQGTLVTVSS VL: DIQMTQSPSSLSASVGDRVTITCLASQTIGTWLAWYQQKPGKAPKLLIYAATSLADGVPSRFSGSGSGTDFTLTISSLQPEDFATYYCQQLYSTPYTFGGGTKVEIKR", "~0.4 nM"),
    ("anti-LAIR-1 antibody ch47H1 (antibody, V domains shown, The prefix 'ch' is not defined; detected with anti-human Fc secondary antibody) VH: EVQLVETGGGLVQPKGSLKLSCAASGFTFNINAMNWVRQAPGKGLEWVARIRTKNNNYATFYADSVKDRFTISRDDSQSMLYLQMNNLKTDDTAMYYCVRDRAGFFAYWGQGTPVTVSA VL: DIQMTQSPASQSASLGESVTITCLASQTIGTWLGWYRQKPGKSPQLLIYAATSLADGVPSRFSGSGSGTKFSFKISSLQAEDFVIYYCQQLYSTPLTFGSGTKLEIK", "~0.2 nM"),
    ("humanized anti-LAIR-1 antibody Hz47H1.v4 (antibody, human IgG1, kappa, N297G, V domains shown, Humanized 47H1 with reengineered VH CDR2 and VL CDR2) VH: EVQLVESGGGLVQPGGSLRLSCAASGFTFNINAMNWVRQAPGKGLEWVARIRTKNYNYATFYADSVKDRFTISRDDSKNSLYLQMNSLKTEDTAVYYCVRDRAGFFAYWGQGTTVTVSS VL: DIQMTQSPSSLSASVGDRVTITCLASQTIGTWLGWYQQKPGKAPKLLIYAATSLAEGVPSRFSGSGSGTDFTLTISSLQPEDFATYYCQQLYSTPLTFGGGTKVEIKR", "~0.1 nM"),
]

Write down IC50 (read off the curve): % GFP+ cyno LAIR-1 reporter cells on coated collagen 1 measured for item anti-LAIR-1 antibody ch62G10 (antibody, V domains shown, The prefix 'ch' is not defined) VH: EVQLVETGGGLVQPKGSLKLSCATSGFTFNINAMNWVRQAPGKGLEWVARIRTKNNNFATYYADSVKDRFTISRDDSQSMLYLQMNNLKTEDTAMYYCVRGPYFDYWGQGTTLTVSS VL: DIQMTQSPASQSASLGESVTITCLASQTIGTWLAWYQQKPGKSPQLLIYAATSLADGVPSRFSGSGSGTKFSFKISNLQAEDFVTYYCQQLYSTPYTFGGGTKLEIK
~0.4 nM

Write down IC50 (read off the curve): % GFP+ cyno LAIR-1 reporter cells on coated collagen 1 measured for item anti-LAIR-1 antibody ch57D12 (antibody, V domains shown, The prefix 'ch' is not defined) VH: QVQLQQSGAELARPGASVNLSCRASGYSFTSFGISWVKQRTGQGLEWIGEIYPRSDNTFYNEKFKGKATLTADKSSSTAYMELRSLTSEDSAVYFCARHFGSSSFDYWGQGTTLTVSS VL: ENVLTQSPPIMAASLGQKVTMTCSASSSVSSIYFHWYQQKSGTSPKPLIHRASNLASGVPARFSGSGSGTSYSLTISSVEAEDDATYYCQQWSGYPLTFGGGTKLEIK
~2 nM
